experiment: protease stability score; higher = more stable; yeast display proteolysis, trypsin and chymotrypsin;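 further: log10 excess protease needed over predicted unfolded state with 0 meaning unfolded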
RESULT TYPE: protease stability score

Example entries and their recorded answers appear below.
> print(dat)
                             residue.string               result.type  measured.result
1  DEHVLHELERAFRDNDFERLQEQFDENARVEIGDKTYHGKNQVQQAMNDFKTAYDHYQLKTFDIHGEKVFADVKATVNGHDVEFEWEMTASNGRIKKLHIQARDEEVKEQLKRALS  protease stability score            0.109
2  DEEEMKEMLEKWHEAVQKGDSDKVKKLYKPNVEWEDSDTQKQGVEVVIKMLQEVQKKGLEFQVRKAKVEGDTAQAVYDLRFGDKTVTFTVELQAQGGRVDKVRVELNEEAKKVLTKG  protease stability score             1.19
3  DDDKKAHKFFSEMLTAIQTGNEDQLRHLVDKDAHINVGDDVITGRENIVETWREKRERVDDLDAKVDSYHVHNGRIEIRAKESSTKNGKSDSRDFRIQARLTNGHVKLQKKEQN  protease stability score           -0.348
4  DEENEKFARRYLEALKHNNPHEMQNMIDPNATLNVGDTRIDGDDQAKKFWSKKLQEISISIRKVSVEVSGNRIDIDAEYELEHNGKPDVNRRTVHLNVKNGKITDLKVRHDK  protease stability score           -0.063

Kindly give each listed record's protease stability score.
1. DEKDLEELAKDVIEAYQDGDEQRLRNNFDKDARWHIGDKTFHGRERNVRHLVEEAKRVDHIHVTTMEVQGNTVRMVLRMNHNGKSDHVDIQITFENGRAQSVTVTKP
2. DEKREQELAKKFADVFQRNNESELRKMIDENARYEIGDKTYRGTKAVKHVMKKVHDRADHVQVENFKAHNGTMELYLRYHVNGQDVRIIIELELRNGKVQHARYDVTSEEDRHNVEN
3. DEETIKHLVKVLEDGDKKRFQKLADPNVRMRVGDKQVHGREKAATLWQHFMDSVDHFFIDHVHIDGEKAHIRADLVVNGQRDTVSIDIKVHNGRIKDVVLRFRDPDYKRKVEKVLG
4. DDQDRSHAVRLMRTGNFKEWADQADKDVSMQVGDKEVRGREQVIKMLKRLQEAADHVQVKSIHTQGEKMKADVTININGDQIRVIIEVVVEGDKLKELRIQFTSEHDEKIMHEQLQ

Resp:
[0.369, 0.041, 1.56, 1.14]

Kindly give each listed record's protease stability score.
1. DEDVQKIAETFWRVLKQGNEDDARRLIDPNARINVGNKNYHGREQIAEIIKKKKEEIRFSIDDVKVRVHNGELTASIDFKVNVNGRPDSIHVEFRMVVHNGKIVQIQMQVDEDWMKELES
2. DDESRVRKMLEDMREQLQTGNPERVADMADPNVEVTVGDKTLRGREDLVKYWRSIAENVDRVDLKLRSLNISGDQISVDFVERNNDNGQTRKHDASARFQKDNGRILATHIHVQ
3. DHRAIHLVRENLDARRHNDSKKAREMADKDATFHIGDRFIHGMDSFVKTLTDENREMRIEIERMSYNDRPGRVEVKQDVRENHNGSPKRFTYHAEMHVQGDHVRTQTEHRTD

Resp:
1: 0.788; 2: 0.119; 3: -0.281
